Cited source: PubChem BioAssay (NCI)

System: KM12 colon
Experiment: NCI-60 one-dose screen, 48 h (100 = growth as untreated, 0 = no growth, -100 = all killed)
Conditions: 10 µM unless noted
The panel holds about 83,000 compounds, 20% with a hit somewhere; the sample as a whole holds those more often.
experimental-readout: growth (%)
Give bare numbers, in %.

Please review the following examples before continuing.
compound=COCCn1cc(-c2csc(-c3c[nH]c4ccc(Br)cc34)n2)c2cccnc21 unit_descriptor=% result=13.4
compound="CN(Cc1ccccc1)c1nc(Cl)c(C2CC(c3ccccc3)=NN2c2ccccc2)s1 (centres undefined)" unit_descriptor=% result=89.7
compound=O=S(=O)(NCCCNc1nccc(-c2c(-c3cccc(F)c3)nc3occn23)n1)c1ccc(F)cc1 unit_descriptor=% result=40.4
compound=COc1ccc(N2CCN(C(=O)c3sc4nc(C)c(Br)c(C)c4c3N)CC2)cc1 unit_descriptor=% result=94
compound=CN1CCN(c2ccc(NC(=O)c3cncnc3Nc3ccc(OCc4cccc(F)c4)c(Cl)c3)cc2)CC1 unit_descriptor=% result=75.8

Can you give me growth for all of these, one by one?
1. O=C(CCSc1nnc2n(Cc3ccccc3)c(=O)c3c4c(sc3n12)CCCC4)N1CCN(c2ccccc2)CC1
2. CCNC(=O)Oc1ccc(/C(=C(/CC)Cc2ccccc2)c2ccc(OCCN3CCCC3)cc2)cc1

92.9
98

* * *

Field: growth. Provide a value for each of the compounds that follow.
System: SF-295 CNS
Assay: NCI-60 one-dose screen, 48 h (100 = growth as untreated, 0 = no growth, -100 = all killed)
Conditions: 10 µM unless noted
Compounds without any hit were thinned out: in the full panel of roughly 83,000, 20% have a hit.
Give bare numbers, in %.

smiles_notation=COc1cc2c(cc1OCCCCN1CCN(C(=S)SCCC(C#N)(c3ccccc3)c3ccccc3)CC1)N=C[C@@H]1CCCN1C2=O result=-8.56
smiles_notation=COc1cc(/C=C/C(=O)c2ccc(-n3cc(CN4CCN(c5cc6c(cc5F)c(=O)c(C(=O)O)cn6C5CC5)CC4)nn3)cc2)ccc1O result=80.2
smiles_notation=C=C(C)[C@@H]1CCC[C@]2(C(=O)N3CCN(C)CC3)CC[C@]3(C)[C@@H](CC[C@@H]4[C@@]5(C)CC/C(=N\NC(=O)c6ccncc6)C(C)(C)[C@@H]5CC[C@]43C)[C@@H]12 result=104
smiles_notation=CN(Cc1cc(Br)cc(Br)c1O)Cc1cc(Br)cc(Br)c1O result=32.1
smiles_notation=CCCCNC(=O)Oc1ccc(/C(=C(/C)Cc2ccc(OC)cc2)c2ccc(OCCN3CCCCCC3)cc2)cc1 result=92.2
smiles_notation=CS(=O)(=O)c1nnc(-c2ccccc2)s1 result=106
smiles_notation=COc1ccc(Nc2ncccc2/C=C/C(=O)c2cc(OC)c(OC)c(OC)c2)cc1 result=17

Now for another entry.
For Cc1ccc(C(=O)Nc2cccc(C#Cc3cccc4[nH]nc(N)c34)c2)cc1C(F)(F)F the compound record lists growth as 78.1

* * *

System: SR leukemia
Experiment: NCI-60 one-dose screen, 48 h (100 = growth as untreated, 0 = no growth, -100 = all killed)
Settings: 10 µM unless noted
Compounds without any hit were thinned out: in the full panel of roughly 83,000, 20% have a hit.
Field: growth. Provide a value for each of the molecules that follow.
Give bare numbers, in %.

Please review the following examples before continuing.
molecule=COC1=C(C)C(=O)N2[C@@H]1[C@H](c1ccccc1)OC21C=CC(=O)C=C1 target_or_test_system="SR leukemia" result=2.4
molecule="Nc1nc(N)c2c(n1)NC(c1cccc(Nc3ccnc4cc(C(F)(F)F)ccc34)c1)CC(c1ccccc1)=N2 (centres undefined)" target_or_test_system="SR leukemia" result=4.11
molecule="CCN1C(=O)N(CC)C2C1NN=c1s/c(=C\\c3cnc(C)n3C)c(=O)n12 (centres undefined)" target_or_test_system="SR leukemia" result=25.3
molecule=COc1ccc(C(=O)/C=C/c2ccc(Cl)cc2)cc1S(=O)(=O)Nc1c(N)nc(SC)[nH]c1=O target_or_test_system="SR leukemia" result=9.2
molecule="CC(C)N1C(=O)/C(=c2\\sc3n(c2=O)C2C(NN=3)N(C)C(=O)N2C)c2ccccc21 (centres undefined)" target_or_test_system="SR leukemia" result=23.3

Can you give me growth for all of these, one by one?
1. COc1ccc(-c2ccc(-c3ccc(C(=N)N)nc3)s2)cc1Cl
2. CCN(CC)CCN1C(=O)c2c(c(C)c3c(oc4ccc(OC)cc43)c2C)C1=O
3. COc1ccc(C(=O)Cn2c(C(=O)c3ccc(OC)cc3)nc3ccccc32)cc1
4. CCN1C2CCC1/C(=C\c1ccc(F)cc1)C(=O)/C2=C/c1ccc(F)cc1

-7.17
110
16.4
24.5

* * *

System: SNB-75 CNS
Assay: NCI-60 one-dose screen, 48 h (100 = growth as untreated, 0 = no growth, -100 = all killed)
Conditions: 10 µM unless noted
Compounds without any hit were thinned out: in the full panel of roughly 83,000, 20% have a hit. Activity calls are given as the source filed them. Rule for the calls: active = growth percent below 10; inactive = the rest.
Field: growth. Provide a value for each of the compounds that follow.

Please review the following examples before continuing.
compound=C#COc1cccc(Nc2ncnc3cc(NC(=O)[C@@H](C)Cl)ccc23)c1 target_or_test_system="SNB-75 CNS" experimental_readout=growth result="-7.9% [6.25 µM] (active)"
compound=CCNC(=O)Oc1ccc(/C(=C(/CC)Cc2ccccc2)c2ccc(OCCN3CCCC3)cc2)cc1 target_or_test_system="SNB-75 CNS" experimental_readout=growth result="85.5% (inactive)"
compound=O=S(=O)(NCCCNc1nccc(-c2c(-c3cccc(F)c3)nc3occn23)n1)c1ccc(F)cc1 target_or_test_system="SNB-75 CNS" experimental_readout=growth result="73.5% (inactive)"
compound=COc1ccc(-c2cc(-c3ccccc3)nc(N3CCN(CCNc4ccnc5cc(Cl)ccc45)CC3)n2)cc1 target_or_test_system="SNB-75 CNS" experimental_readout=growth result="83.6% (inactive)"
compound=O=C(O)c1ccc(-c2ccc(/C=N/Nc3nc(Nc4ccccc4)nc(N4CCCCC4)n3)o2)cc1 target_or_test_system="SNB-75 CNS" experimental_readout=growth result="65.7% (inactive)"

Can you give me growth for all of these, one by one?
1. O=P(O)(O)OCC1OC(n2cnc3c(NCc4ccco4)ncnc32)C(O)C1O (stereo not given)
2. CCN(CC)CCN1C(=O)c2c(c(C)c3c(oc4ccc(O)cc43)c2C)C1=O
3. O=C(CN1CCCCCC1)Nc1nc2ccc(NCc3ccc(Cl)cc3)cc2s1
4. O=C1/C(=C2\SC(=S)N(C3CC3)C2=O)SC(=S)N1C1CC1
5. CCOC(=O)c1c(C)c2c(n1Cc1ccccc1)CSCC2=O
6. O=C(N/N=C\c1ccccc1S(=O)(=O)O)N/N=C/c1ccccc1S(=O)(=O)O
7. CCCCNC(=O)c1cc([N+](=O)[O-])cc(C2CCCCC2)c1O

8.93% (active)
94.3% (inactive)
94.2% (inactive)
81.9% (inactive)
-13.9% [100 µM] (active)
95.5% (inactive)
58.6% (inactive)

Can you give me growth for all of these, one by one?
1. CC[N+]1(CC)CC[N+]2(CCCC(C)CC2)CC1 (stereo not given)
2. O=C(Cc1ccc(/C=C/C(=O)c2ncc[nH]2)cc1)Nc1cc(C(F)(F)F)cc(C(F)(F)F)c1
3. C=C(C)[C@@H]1CCC[C@]2(C(=O)O)CC[C@]3(C)[C@@H](CC[C@@H]4[C@@]5(C)C/C(=C/c6ccncc6)C(=O)C(C)(C)[C@@H]5CC[C@]43C)[C@@H]12
4. Cc1n[nH]c2ccc(Br)cc2c1=O
5. Fc1cccc(-c2ccc3c(c2)C2(CCNCC2)CN3)c1
6. Clc1ccccc1-c1cnn2cc(-c3ccccc3)cnc12
7. CC(=O)O[C@H]1C[C@@H]2C(C)(C)C(=O)CC[C@@]2(C)c2ccc(C(C)C)cc21

["115% (inactive)", "79% (inactive)", "52.6% (inactive)", "102% (inactive)", "92% (inactive)", "74.2% (inactive)", "100% (inactive)"]

For CCCCCCCC/C=C\CCCCCCCCOc1ccc(CC(=O)NCC[N+]2(C)CCOCC2)cc1 the compound record lists growth as 41.2% (inactive)

* * *

Test system: U251 CNS
Assay: NCI-60 one-dose screen, 48 h
Conditions: 10 µM unless noted
This is part of a sample that, as a whole, favours compounds with a hit. Of some 83,000 tested, about 20% had one in any assay. Active and inactive are the calls of the source. The calls were made as follows: active = growth percent below 10; inactive = the rest.
Pick one and only one: Y (active), N (inactive)

compound=O=C1c2ccccc2C(=O)c2c1cc1c(c2[N+](=O)[O-])OCO1 target_or_test_system="U251 CNS" classification=Y
compound=COC(=O)CC[C@@H]1O[C@@H](c2ccc(F)cc2)[C@@H](O)[C@H]1O target_or_test_system="U251 CNS" classification=N
compound="O=C(NC1CC(F)C1)c1cc2cccnc2n1-c1ccc(Cl)c(Cl)c1 (stereo not given)" target_or_test_system="U251 CNS" classification=N
compound=NC(=O)c1cnc(Nc2cccc(N)c2)nc1NCCCNC(=O)C1CCC1 target_or_test_system="U251 CNS" classification=N
compound=O=C1/C(=C/c2ccccn2)NC(=S)N1c1ccccc1Cl target_or_test_system="U251 CNS" classification=N
compound=COC(=O)c1c2c(c(C)[n+]([O-])c1C)C(=O)C(NCc1cccc(Cl)c1)=CC2=O target_or_test_system="U251 CNS" classification=Y
compound="N#CC1=C(N)Oc2ccc3ccccc3c2C1c1ccc([N+](=O)[O-])cc1 (stereo not given)" target_or_test_system="U251 CNS" classification=N
compound="Cc1ccc(C2CC(c3nc(-c4ccc(Cl)cc4)oc3C)=NN2C(=O)c2ccncc2)cc1 (stereo not given)" target_or_test_system="U251 CNS" classification=N

Dear all, I need the recorded test outcome for Cc1ccc(C=C2C(=O)NC(=O)NC2=O)cc1 , thank you. N

Dear all, I need the recorded test outcome for N#Cc1c(-c2ccccc2)nc(SCc2nnc(-c3ccc(Cl)cc3)o2)[nH]c1=O , thank you. N

Dear all, I need the recorded test outcome for Cc1c(CN)cc(-c2ccc(Cl)cc2)n1-c1ccccc1 , thank you. N

Dear all, I need the recorded test outcome for CN(Cc1cc(Br)cc(Br)c1O)Cc1cc(Br)cc(Br)c1O , thank you. N
